This collection of values is drawn from patent US9737505B2.

test: Solubility in aqueous media; assay type: physicochemical; details: thermodynamic from solid; FaSSIF (Simulated Fasted State Intestinal Fluid pH 6.5), 4 hour; read-out: Solubility at 4 hour timepoint
property: solubility at 4 h (µg/mL)
Respond with the bare value in µg/mL.

## Task Can you look up the measured solubility at 4 h of O=C(OCOC(=O)[C@H]1CCCN1C(=O)CCCCC(=O)N1CCC[C@@H]1C(=O)OCOC(=O)OC1CCOCC1)OC1CCOCC1 for me?
## Result 4400

* * *

test: Solubility in aqueous media; format: physicochemical; details: water (purified water), thermodynamic from solid; Water, 4 hour; read-out: Solubility at 4 hour timepoint
property: solubility at 4 h (µg/mL)
Respond with the bare value in µg/mL.

## Task Can you look up the measured solubility at 4 h of O=C(OCOC(=O)[C@H]1CCCN1C(=O)CCCCC(=O)N1CCC[C@@H]1C(=O)OCOC(=O)OC1CCOCC1)OC1CCOCC1 [Compound of Formula (I)] for me?
## Result 5500

* * *

Biological target: CYP2C19 (Homo sapiens)
Construct: purchased Cypex; host or cells: bactosomes (bacterial membranes)
Sequence (P33261 whole entry): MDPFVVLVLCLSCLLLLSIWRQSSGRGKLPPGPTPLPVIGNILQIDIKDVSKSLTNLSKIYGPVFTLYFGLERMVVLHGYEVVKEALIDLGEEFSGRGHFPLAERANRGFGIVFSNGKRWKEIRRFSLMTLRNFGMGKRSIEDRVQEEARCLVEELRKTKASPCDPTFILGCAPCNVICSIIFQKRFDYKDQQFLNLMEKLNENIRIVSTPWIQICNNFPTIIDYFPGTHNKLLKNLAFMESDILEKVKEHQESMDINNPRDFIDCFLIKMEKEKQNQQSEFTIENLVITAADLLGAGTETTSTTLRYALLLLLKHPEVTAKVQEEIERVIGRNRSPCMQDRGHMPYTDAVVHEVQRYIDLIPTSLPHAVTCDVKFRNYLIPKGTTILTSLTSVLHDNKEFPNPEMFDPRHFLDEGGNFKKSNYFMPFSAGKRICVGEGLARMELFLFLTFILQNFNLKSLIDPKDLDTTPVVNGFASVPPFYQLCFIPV
Test: Cytochrome p450 inhibition assay (bactosomes, fluorogenic substrate BMC)
Format: biochemical
Conditions: recombinant human CYP (Cypex bactosomes)
Experimental: The assay was designed to evaluate inhibition on cytochrome P450 (CYP) 3A4, 2C9, 2C19, 1A2 and 2D6 enzymes from bactosomes source using fluorogenic substrates. Compound (compound of Formula (I) or Comparator Compound) was dissolved in methanol at 1.65 mM. Daughter solutions were prepared in methanol at 660, 264, 106, 42, 17, 6.8, 2.7, 1.1 and 0.43 μM. NADPH cofactor was prepared with Glucose-6-phosphate (7.8 mg), Glucose-6-phosphate dehydrogenase (6 units), NADP (1.7 mg) per 1 mL in NaHCO3 2%. […]
Listed here: items and their measured IC50.

- compound: "CC(OC(=O)[C@H]1CCCN1C(=O)CCCCC(=O)N1CCC[C@@H]1C(=O)OC(C)OC(=O)C(C)(C)C)OC(=O)C(C)(C)C (stereo partly drawn) [Comparator Compound, reference compound]"
  recorded_result: "> 33 µM"

## Task Can you look up the measured IC50 of O=C(OCOC(=O)[C@H]1CCCN1C(=O)CCCCC(=O)N1CCC[C@@H]1C(=O)O)OC1CCOCC1 [mono-ester derivative] for me?
## Result > 33 µM

## Task Can you look up the measured IC50 of O=C(OCOC(=O)[C@H]1CCCN1C(=O)CCCCC(=O)N1CCC[C@@H]1C(=O)OCOC(=O)OC1CCOCC1)OC1CCOCC1 [Compound of Formula (I)] for me?
## Result > 33 µM

* * *

target: CYP2C9 (Homo sapiens, UniProt P11712); assay: Cytochrome p450 inhibition assay (bactosomes, fluorogenic substrate FCA); conditions: recombinant human CYP (Cypex bactosomes)
Sequence (P11712 whole entry): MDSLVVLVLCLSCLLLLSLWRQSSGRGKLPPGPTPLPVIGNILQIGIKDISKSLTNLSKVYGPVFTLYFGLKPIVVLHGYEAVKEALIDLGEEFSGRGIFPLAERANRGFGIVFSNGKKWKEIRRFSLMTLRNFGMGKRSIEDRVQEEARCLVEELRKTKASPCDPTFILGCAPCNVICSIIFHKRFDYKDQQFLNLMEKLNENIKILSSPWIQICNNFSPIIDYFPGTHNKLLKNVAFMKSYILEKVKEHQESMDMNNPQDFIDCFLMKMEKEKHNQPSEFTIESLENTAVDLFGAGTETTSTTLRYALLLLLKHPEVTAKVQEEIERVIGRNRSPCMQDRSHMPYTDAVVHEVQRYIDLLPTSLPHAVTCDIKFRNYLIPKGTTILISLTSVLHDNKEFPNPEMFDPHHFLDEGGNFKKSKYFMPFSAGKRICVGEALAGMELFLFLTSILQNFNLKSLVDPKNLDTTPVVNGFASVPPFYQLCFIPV
pIC50: −log10 of the molar value.
Listed here: items and their measured pIC50.

Completed entries (count: 2):
- compound: "O=C(OCOC(=O)[C@H]1CCCN1C(=O)CCCCC(=O)N1CCC[C@@H]1C(=O)OCOC(=O)OC1CCOCC1)OC1CCOCC1 [Compound of Formula (I)]"
  property: "pIC50"
  recorded_result: "< 4.48"
- compound: "O=C(OCOC(=O)[C@H]1CCCN1C(=O)CCCCC(=O)N1CCC[C@@H]1C(=O)O)OC1CCOCC1 [mono-ester derivative]"
  property: "pIC50"
  recorded_result: "< 4.48"

// switching to the query compound
## Task Can you look up the measured pIC50 of CC(OC(=O)[C@H]1CCCN1C(=O)CCCCC(=O)N1CCC[C@@H]1C(=O)OC(C)OC(=O)C(C)(C)C)OC(=O)C(C)(C)C (stereo partly drawn) [Comparator Compound, reference compound] for me?
## Result 4.59
